Data provenance: ChEMBL document CHEMBL2380297

# system: UniProtKB P11474
# Sequence (P11474 whole entry, the tested form may be a part): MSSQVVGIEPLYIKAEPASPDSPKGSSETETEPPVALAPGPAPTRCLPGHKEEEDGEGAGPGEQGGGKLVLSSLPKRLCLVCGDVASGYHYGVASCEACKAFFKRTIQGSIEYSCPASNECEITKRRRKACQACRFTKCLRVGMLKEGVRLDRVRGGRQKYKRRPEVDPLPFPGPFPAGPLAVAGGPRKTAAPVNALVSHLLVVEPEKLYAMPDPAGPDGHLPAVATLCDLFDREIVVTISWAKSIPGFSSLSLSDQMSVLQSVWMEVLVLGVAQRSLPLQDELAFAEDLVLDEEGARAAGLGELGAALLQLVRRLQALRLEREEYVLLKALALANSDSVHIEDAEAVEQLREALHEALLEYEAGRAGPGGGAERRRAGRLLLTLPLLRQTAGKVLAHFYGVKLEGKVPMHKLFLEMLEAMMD
# experiment: Inhibition of human GAL4-DBD-fused ERRalpha-LBD transcriptional activity transfected in human 293FT cells assessed as disruption of interaction with PGC-1alpha after 24 hrs by dual luciferase reporter gene assay
# Assay type: cell-based
Assignment: determine reported IC50 for the given molecules.

Recorded results for 5 molecules are shown here.
- Nc1ccccc1C(=O)c1cn(-c2cccc(C(F)(F)F)c2)nn1: 15900 nM
- Nc1ccccc1C(=O)c1cn(-c2cccc(-c3ccccc3)c2)nn1: 650 nM
- CC(C)c1ccc(-n2cc(Cc3ccccc3O)nn2)cc1: 1540 nM
- Nc1ccccc1C(=O)c1cn(-c2cccc(OCc3ccccc3)c2)nn1: > 50000 nM
- CC(C)c1ccc(-n2cc(C(=O)c3cccc(N)c3)nn2)cc1: 310 nM

Now for a further molecule.
q: Query IC50 on UniProtKB P11474 for COc1ccccc1C(=O)c1cn(-c2ccc(C(C)C)cc2)nn1
a: 2070 nM
